Target: T1, human ADAMTS5 (human, UniProt Q9UNA0 262-622, limits assumed)
T1 construct: Octet and ELISA used 'recombinant human ADAMTS5'; also called recombinant human ADAMTS5; ADAMTS5 (R&D Systems 2198-AD)
T1 sequence: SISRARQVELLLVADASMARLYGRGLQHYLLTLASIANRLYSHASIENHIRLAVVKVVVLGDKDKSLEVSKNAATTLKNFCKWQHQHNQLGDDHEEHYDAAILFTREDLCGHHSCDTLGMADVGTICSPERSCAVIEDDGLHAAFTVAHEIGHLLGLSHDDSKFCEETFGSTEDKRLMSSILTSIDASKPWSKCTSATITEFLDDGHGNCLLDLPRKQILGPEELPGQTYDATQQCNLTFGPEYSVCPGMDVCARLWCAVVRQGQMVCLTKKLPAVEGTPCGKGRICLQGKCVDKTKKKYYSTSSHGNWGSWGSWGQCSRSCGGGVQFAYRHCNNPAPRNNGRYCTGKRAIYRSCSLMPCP
Assay: Biacore, mAb from culture supernatant captured on anti-human IgG, ADAMTS5 (R&D 2198-AD) at 64 nM, 1:1 fit
Procedure: Anti-human IgG (Biacore™, BR-1008-39) was immobilized on a CM5 chip by primary amine coupling. This surface was then used to capture the humanized antibodies, ADAMTS5 (R&D Systems 2198-AD) was then passed over the captured antibody at a single concentration of 64 nM, regeneration was carried out using 100 mM phosphoric acid followed by 3M MgCl₂. The binding curves were double referenced with buffer injection (i.e. 0 nM) and the data was fitted to the T100 analysis software using the 1:1 model. […]
pKd: −log10 of the molar value.
EXPERIMENTAL ENDPOINT: pKd

1. BPC1639 (antibody, human IgG1, kappa, V domains shown, Humanized, human gamma 1 / kappa; also called 7B4 H5L0) VH: EVQLVESGGGLVQPGGSLRLSCAASGFTSSDAWMDWVRQAPGKGLEWVAEIRNKANNHARHYAESVKGRFTISRDNAKNSVYLQMNSLRAEDTAVYYCTRTYYYGSSYGYCDVWGQGTLVTVSS VL: DIQMTQSPSSLSASVGDRVTITCRTSENIYSYLAWYQQKPGKAPKLLIYNAKTLAEGVPSRFSGSGSGTDFTLTISSLQPEDFATYYCQHHYGTPWTFGQGTKLEIKR: 9.02
2. BPC1641 (antibody, human IgG1, kappa, V domains shown, Humanized, human gamma 1 / kappa; also called 7B4 H0L1) VH: EVQLVESGGGLVQPGGSLRLSCAASGFTFSDAWMDWVRQAPGKGLEWVAEIRNKANNHARHYAESVKGRFTISRDNAKNSLYLQMNSLRAEDTAVYYCARTYYYGSSYGYCDVWGQGTLVTVSS VL: DIQMTQSPSSLSASVGDRVTITCRTSENIYSYLAWYQQKPGKAPKLLVYNAKTLAEGVPSRFSGSGSGTDFTLTISSLQPEDFATYYCQHHYGTPWTFGQGTKLEIKR: 8.88
3. BPC1643 (antibody, human IgG1, kappa, V domains shown, Humanized, human gamma 1 / kappa; also called 7B4 H2L1) VH: EVQLVESGGGLVQPGGSLRLSCAASGFTSSDAWMDWVRQAPGKGLEWVAEIRNKANNHARHYAESVKGRFTISRDNAKNSLYLQMNSLRAEDTAVYYCARTYYYGSSYGYCDVWGQGTLVTVSS VL: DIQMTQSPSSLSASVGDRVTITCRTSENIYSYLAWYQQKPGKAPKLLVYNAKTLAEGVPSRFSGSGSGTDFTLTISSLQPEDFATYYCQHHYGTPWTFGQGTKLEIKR: 8.98
